Test: Coupled enzyme assay (ADH, with and without MSAD): hydratase and hydratase/decarboxylase activity and product profile of Cg10062 and variants
Assay type: biochemical
Conditions: from Cg10062 activity in the presence and absence of MSAD; ACA substrate, pH 8.0, 25° C.

MOLECULE	Product Ratio (%) malonate semialdehyde
Cg10062(E114Q): Previously described Cg10062 variant with E114Q mutation, SEQ ID NO: 22 and 60 (protein, Cg10062(E114Q) from Corynebacterium glutamicum codon-optimized for Escherichia coli) PTYTCWSQRIRISREAKQRIAEAITDAHHELAHAPKYLVQVIFNEVEPDSYFIAAQSASENHIWVQATIRSGRTEKQKEELLLRLTQEIALILGIPNEEVWVYITEIPGSNMTQYGRLLMEPGEEEKWFNSLPEGLRERLTELEGSSE	>99%
Cg10062(E114D): Previously described Cg10062 variant with E114D mutation, SEQ ID NO: 23 and 61 (protein, Cg10062(E114D) from Corynebacterium glutamicum codon-optimized for Escherichia coli) PTYTCWSQRIRISREAKQRIAEAITDAHHELAHAPKYLVQVIFNEVEPDSYFIAAQSASENHIWVQATIRSGRTEKQKEELLLRLTQEIALILGIPNEEVWVYITEIPGSNMTDYGRLLMEPGEEEKWFNSLPEGLRERLTELEGSSE	>99%
Cg10062(E114D-Y103F): Cg10062 double variant E114D-Y103F, SEQ ID NO: 33 and 71 (protein, Cg10062(E114D-Y103F) from Corynebacterium glutamicum codon-optimized for Escherichia coli) PTYTCWSQRIRISREAKQRIAEAITDAHHELAHAPKYLVQVIFNEVEPDSYFIAAQSASENHIWVQATIRSGRTEKQKEELLLRLTQEIALILGIPNEEVWVFITEIPGSNMTDYGRLLMEPGEEEKWFNSLPEGLRERLTELEGSSE	>99%
Cg10062(E114N): Novel hydratase-only Cg10062 variant with E114N mutation, SEQ ID NO: 24 and 62 (protein, Cg10062(E114N) from Corynebacterium glutamicum codon-optimized for Escherichia coli) PTYTCWSQRIRISREAKQRIAEAITDAHHELAHAPKYLVQVIFNEVEPDSYFIAAQSASENHIWVQATIRSGRTEKQKEELLLRLTQEIALILGIPNEEVWVYITEIPGSNMTNYGRLLMEPGEEEKWFNSLPEGLRERLTELEGSSE	>99%
Cg10062: Tautomerase superfamily enzyme from Corynebacterium glutamicum, SEQ ID NO: 21; His6-tagged form SEQ ID NO: 59 (protein, Cg10062 from Corynebacterium glutamicum codon-optimized for Escherichia coli) PTYTCWSQRIRISREAKQRIAEAITDAHHELAHAPKYLVQVIFNEVEPDSYFIAAQSASENHIWVQATIRSGRTEKQKEELLLRLTQEIALILGIPNEEVWVYITEIPGSNMTEYGRLLMEPGEEEKWFNSLPEGLRERLTELEGSSE	19%
